Listed here are compounds together with their documented combination Emax.
test system: MOG-G-CCM (Low Grade Glioma); test: combination Emax (second highest fraction inhibited in the dose matrix, 72 h); higher = more inhibition; extreme values may be limits of the assay
Respond using a number only.

# get_value(readout= combination Emax, system= MOG-G-CCM (Low Grade Glioma)) for COc1cccc(OCCCN)c1-c1cc(Nc2cnc(C#N)cn2)n[nH]1 [Prexasertib] + O=C(c1cc(Cc2n[nH]c(=O)c3ccccc23)ccc1F)N1CCN(C(=O)C2CC2)CC1 [Olaparib] (first compound max 1 µM, 7x7, partner max 10 µM)
0.673

Queued: Cc1c2c(nn1C)CSCc1cc(n(C)n1)CSc1cc(c3ccccc3c1)OCCCc1c(C(=O)O)n(C)c3c-2c(Cl)ccc13 [AZD5991] + C=CCn1c(=O)c2cnc(Nc3ccc(N4CCN(C)CC4)cc3)nc2n1-c1cccc(C(C)(C)O)n1 [AZD1775] (first compound max 1 µM, partner max 1 µM)
0.457

###

test system: PC-3 (Prostate Carcinoma); test: combination Emax (second highest fraction inhibited in the dose matrix, 72 h); higher = more inhibition; extreme values may be limits of the assay
Listed here are compounds together with their documented combination Emax.
Respond using a number only.

>  <Compound>
COc1cccc(OCCCN)c1-c1cc(Nc2cnc(C#N)cn2)n[nH]1 [Prexasertib] + CCc1c2c(nc3ccc(O)cc13)-c1cc3c(c(=O)n1C2)COC(=O)[C@]3(O)CC [SN-38] (first compound max 1 µM, 7x7, partner max 0.3 µM)

>  <Endpoint Result>
0.703

$$$$

Would you kindly look at the next entry?
Requested field: combination Emax. Item: CC(=O)Nc1cccc(-n2c(=O)n(C3CC3)c(=O)c3c(Nc4ccc(I)cc4F)n(C)c(=O)c(C)c32)c1 [Trametinib] + Cc1nc(-c2cn3c(n2)-c2ccc(-c4cnn(C(C)(C)C(N)=O)c4)cc2OCC3)n(C(C)C)n1 [Taselisib] (first compound max 1 µM, 7x7, partner max 10 µM)
0.503

###

test system: DMS-114 (Small Cell Lung Carcinoma); assay: combination Emax (second highest fraction inhibited in the dose matrix, 72 h); higher = more inhibition; extreme values may be limits of the assay
Listed here are compounds together with their documented combination Emax.

Solved cases below.
>  <Compound>
CN(CCO)CC[C@H](CSc1ccccc1)Nc1ccc(S(=O)(=O)NC(=O)c2ccc(N3CCC([C@@H](O)c4ccccc4-c4ccc(Cl)cc4)CC3)cc2)cc1S(=O)(=O)C(F)(F)F [AZD4320] + C=CCn1c(=O)c2cnc(Nc3ccc(N4CCN(C)CC4)cc3)nc2n1-c1cccc(C(C)(C)O)n1 [AZD1775] (first compound max 1 µM, partner max 1 µM)

>  <combination Emax>
0.373

$$$$
>  <Compound>
CN(CCO)CC[C@H](CSc1ccccc1)Nc1ccc(S(=O)(=O)NC(=O)c2ccc(N3CCC([C@@H](O)c4ccccc4-c4ccc(Cl)cc4)CC3)cc2)cc1S(=O)(=O)C(F)(F)F [AZD4320] + CS(=O)(=O)CCNCc1ccc(-c2ccc3ncnc(Nc4ccc(OCc5cccc(F)c5)c(Cl)c4)c3c2)o1 [Lapatinib] (first compound max 1 µM, 7x7, partner max 10 µM)

>  <combination Emax>
0.36

$$$$
>  <Compound>
CN(CCO)CC[C@H](CSc1ccccc1)Nc1ccc(S(=O)(=O)NC(=O)c2ccc(N3CCC([C@@H](O)c4ccccc4-c4ccc(Cl)cc4)CC3)cc2)cc1S(=O)(=O)C(F)(F)F [AZD4320] + CN(C)CCCOc1ccc(-c2ccc3ncc4c(c3c2)n(C2CCOCC2)c(=O)n4C)cn1 [AZD0156] (first compound max 1 µM, 7x7, partner max 1 µM)

>  <combination Emax>
0.12

$$$$
>  <Compound>
COc1nnc2ccc(N3CCC(c4ccc(OCCN5CCN(C)C(=O)[C@H]5C)cc4)CC3)nn12 [AZD5153] + C[C@@H]1COCCN1C2=NC(=NC(=C2)C3(CC3)[S@](=N)(=O)C)C4=C5C=CNC5=NC=C4 [AZD6738] (first compound max 1 µM, 7x7, partner max 10 µM)

>  <combination Emax>
0.733

$$$$
>  <Compound>
CCN(CCO)CCCOc1ccc2c(Nc3cc(CC(=O)Nc4cccc(F)c4)[nH]n3)ncnc2c1 [AZD2811] + C=CCn1c(=O)c2cnc(Nc3ccc(N4CCN(C)CC4)cc3)nc2n1-c1cccc(C(C)(C)O)n1 [AZD1775] (first compound max 1 µM, partner max 1 µM)

>  <combination Emax>
0.243

$$$$

# get_value(readout= combination Emax, system= DMS-114 (Small Cell Lung Carcinoma)) for Cn1cnc2c(F)c(Nc3ccc(Br)cc3Cl)c(C(=O)NOCCO)cc21 [Selumetinib] + CC(C)n1c(=O)n(C)c2cnc3cc(F)c(-c4ccc(OCCCN5CCCCC5)nc4)cc3c21 [AZD1390] (first compound max 10 µM, 7x7, partner max 0.3 µM)
0.199

###

Listed here are compounds together with their documented combination Emax.
test system: CW-2 (Colorectal Carcinoma); assay: combination Emax (second highest fraction inhibited in the dose matrix, 72 h); higher = more inhibition; extreme values may be limits of the assay
Respond using a number only.

Requested field: combination Emax. Item: COc1cccc2c1C(=O)c1c(O)c3c(c(O)c1C2=O)C[C@@](O)(C(=O)CO)C[C@@H]3O[C@H]1C[C@H](N)[C@H](O)[C@H](C)O1 [Doxorubicin] + Cc1cc2ncnn2cc1Nc1ncc2c(n1)n(C1CCOCC1)c(=O)n2C [AZD7648] (first compound max 1 µM, 7x7, partner max 10 µM)
0.231

Queued: C[C@@H](Oc1cc(-c2cnn(C3CCNCC3)c2)cnc1N)c1c(Cl)ccc(F)c1Cl [Crizotinib] + CC1=C(C(=CC=C1)Cl)NC(=O)C2=CN=C(S2)NC3=CC(=NC(=N3)C)N4CCN(CC4)CCO [Dasatinib] (first compound max 10 µM, 7x7, partner max 2 µM)
0.306

###

tested on: NCI-H526 (Small Cell Lung Carcinoma); test: Bliss excess, mean over the matrix (fraction); higher = more synergy
Listed here are compounds together with their documented Bliss excess.
Respond using a number only.

>  <Compound>
COc1cccc(OCCCN)c1-c1cc(Nc2cnc(C#N)cn2)n[nH]1 [Prexasertib] + O=C(c1cc(Cc2n[nH]c(=O)c3ccccc23)ccc1F)N1CCN(C(=O)C2CC2)CC1 [Olaparib] (first compound max 1 µM, 7x7, partner max 10 µM)

>  <Bliss excess>
-0.0214

$$$$
>  <Compound>
C[C@@H]1COCCN1c1cc(C2([S@](C)(=N)=O)CC2)nc(-c2ccnc3[nH]ccc23)n1 [AZD6738] + Nc1ccn([C@@H]2O[C@H](CO)[C@@H](O)C2(F)F)c(=O)n1 [Gemcitabine] (first compound max 10 µM, 7x7, partner max 0.3 µM)

>  <Bliss excess>
0.0678

$$$$
>  <Compound>
COc1nnc2ccc(N3CCC(c4ccc(OCCN5CCN(C)C(=O)[C@H]5C)cc4)CC3)nn12 [AZD5153] + Cc1c2c(nn1C)CSCc1cc(n(C)n1)CSc1cc(c3ccccc3c1)OCCCc1c(C(=O)O)n(C)c3c-2c(Cl)ccc13 [AZD5991] (first compound max 1 µM, 7x7, partner max 1 µM)

>  <Bliss excess>
0.03

$$$$

Would you kindly look at the next entry?
# get_value(readout= Bliss excess, system= NCI-H526 (Small Cell Lung Carcinoma)) for C=CCn1c(=O)c2cnc(Nc3ccc(N4CCN(C)CC4)cc3)nc2n1-c1cccc(C(C)(C)O)n1 [AZD1775] + Nc1ccn([C@@H]2O[C@H](CO)[C@@H](O)C2(F)F)c(=O)n1 [Gemcitabine] (first compound max 1 µM, partner max 0.3 µM)
0.0642

###

Listed here are compounds together with their documented combination Emax.
system: KP-3 (Pancreatic Carcinoma); assay: combination Emax (second highest fraction inhibited in the dose matrix, 72 h); higher = more inhibition; extreme values may be limits of the assay

>  <Compound>
CC1(C)CCC(CN2CCN(c3ccc(C(=O)NS(=O)(=O)c4ccc(NCC5CCOCC5)c([N+](=O)[O-])c4)c(Oc4cnc5[nH]ccc5c4)c3)CC2)=C(c2ccc(Cl)cc2)C1 [Venetoclax] + Cc1cc2ncnn2cc1Nc1ncc2c(n1)n(C1CCOCC1)c(=O)n2C [AZD7648] (first compound max 1 µM, 7x7, partner max 10 µM)

>  <Tgt>
KP-3 (Pancreatic Carcinoma)

>  <Measured Parameter>
combination Emax

>  <Endpoint Result>
0.13

$$$$

Would you kindly look at the next entry?
Requested field: combination Emax. Item: Cc1cc2ncnn2cc1Nc1ncc2c(n1)n(C1CCOCC1)c(=O)n2C [AZD7648] + COc1cc([C@@H]2c3cc4c(cc3[C@@H](O[C@@H]3O[C@@H]5CO[C@@H](C)O[C@H]5[C@H](O)[C@H]3O)[C@H]3COC(=O)[C@H]23)OCO4)cc(OC)c1O [Etoposide] (first compound max 10 µM, 7x7, partner max 10 µM)
0.312

###

test system: HCC1419 (Breast Carcinoma); experiment: Bliss excess, mean over the matrix (fraction); higher = more synergy
Listed here are compounds together with their documented Bliss excess.

Solved cases below.
>  <Compound>
Cn1cnc2c(F)c(Nc3ccc(Br)cc3Cl)c(C(=O)NOCCO)cc21 [Selumetinib] + C[C@@H]1COCCN1C2=NC(=NC(=C2)C3(CC3)[S@](=N)(=O)C)C4=C5C=CNC5=NC=C4 [AZD6738] (first compound max 10 µM, 7x7, partner max 10 µM)

>  <Bliss excess>
-0.0522

$$$$
>  <Compound>
COc1cccc2c1C(=O)c1c(O)c3c(c(O)c1C2=O)C[C@@](O)(C(=O)CO)C[C@@H]3O[C@H]1C[C@H](N)[C@H](O)[C@H](C)O1 [Doxorubicin] + Cc1cc2ncnn2cc1Nc1ncc2c(n1)n(C1CCOCC1)c(=O)n2C [AZD7648] (first compound max 1 µM, 7x7, partner max 10 µM)

>  <Bliss excess>
-0.128

$$$$
>  <Compound>
CCN(CCO)CCCOc1ccc2c(Nc3cc(CC(=O)Nc4cccc(F)c4)[nH]n3)ncnc2c1 [AZD2811] + C[C@@H]1COCCN1C2=NC(=NC(=C2)C3(CC3)[S@](=N)(=O)C)C4=C5C=CNC5=NC=C4 [AZD6738] (first compound max 1 µM, 7x7, partner max 10 µM)

>  <Bliss excess>
-0.0757

$$$$

Requested field: Bliss excess. Item: CN(CCO)CC[C@H](CSc1ccccc1)Nc1ccc(S(=O)(=O)NC(=O)c2ccc(N3CCC([C@@H](O)c4ccccc4-c4ccc(Cl)cc4)CC3)cc2)cc1S(=O)(=O)C(F)(F)F [AZD4320] + Cn1cnc2c(F)c(Nc3ccc(Br)cc3Cl)c(C(=O)NOCCO)cc21 [Selumetinib] (first compound max 1 µM, 7x7, partner max 3 µM)
-0.0211
